Listed molecules paired with reported Comparison with the Binding of Phenylalanine
Target: L1 transport system (large neutral amino acid carrier, L1-system carrier) (Rattus norvegicus, UniProt Q63016)
Construct: functionality of their endogenous transporters such as the L1-system carrier; endogenous in cells; host or cells: rat primary cerebrovascular (brain microcapillary) endothelial cells, RBEC
Sequence (Q63016 whole entry): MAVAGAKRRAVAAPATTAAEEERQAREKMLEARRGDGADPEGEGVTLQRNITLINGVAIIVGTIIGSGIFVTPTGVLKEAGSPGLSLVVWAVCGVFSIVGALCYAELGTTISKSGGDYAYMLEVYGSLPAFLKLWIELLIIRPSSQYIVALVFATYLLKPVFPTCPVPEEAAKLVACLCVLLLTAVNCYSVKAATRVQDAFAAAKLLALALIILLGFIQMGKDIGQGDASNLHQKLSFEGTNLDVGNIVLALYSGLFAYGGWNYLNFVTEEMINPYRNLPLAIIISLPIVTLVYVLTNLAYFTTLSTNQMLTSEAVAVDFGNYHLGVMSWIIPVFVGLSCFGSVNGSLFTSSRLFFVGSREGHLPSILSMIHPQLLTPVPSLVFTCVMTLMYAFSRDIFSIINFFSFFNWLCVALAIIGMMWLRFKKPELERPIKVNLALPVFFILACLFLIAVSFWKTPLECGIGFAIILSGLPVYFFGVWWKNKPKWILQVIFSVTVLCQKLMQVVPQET
Sequence (Q794F9 whole entry partner): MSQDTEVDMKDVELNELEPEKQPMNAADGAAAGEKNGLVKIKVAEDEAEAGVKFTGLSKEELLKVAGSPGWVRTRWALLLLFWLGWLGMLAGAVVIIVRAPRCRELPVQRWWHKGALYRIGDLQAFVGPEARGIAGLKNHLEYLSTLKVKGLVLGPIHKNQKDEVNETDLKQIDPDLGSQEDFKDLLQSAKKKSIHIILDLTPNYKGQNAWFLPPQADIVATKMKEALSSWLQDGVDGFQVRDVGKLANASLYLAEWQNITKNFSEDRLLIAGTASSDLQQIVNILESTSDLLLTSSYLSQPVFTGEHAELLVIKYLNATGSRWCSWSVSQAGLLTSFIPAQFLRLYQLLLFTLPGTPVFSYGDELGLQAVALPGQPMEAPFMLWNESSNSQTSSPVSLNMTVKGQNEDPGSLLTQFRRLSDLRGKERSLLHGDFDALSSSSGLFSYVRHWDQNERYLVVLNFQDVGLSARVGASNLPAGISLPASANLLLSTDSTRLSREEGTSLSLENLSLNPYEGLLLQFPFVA
Experiment: Competitive binding assay to the brain L1 transport system (L-[U-14C]phenylalanine on rat primary cerebrovascular endothelial cells)
Conditions: 10^−5 M

Some solved cases for reference:
# molecule, experimental value
measured = [
    ("NC(Cc1cccc(CSc2nc(-c3ccccc3)c(-c3ccccc3)[nH]2)n1)C(=O)O (stereo not drawn) [Compound 148]", "0 (X < 0 Rank 0)"),
    ("O=C(O)C(Cc1cccc(CSc2ncnc3[nH]ncc23)n1)NS(=O)(=O)c1ccc(F)cc1 (stereo not drawn) [Compound 64]", "1 (0 < X < 10 Rank 1)"),
    ("Cc1ccnc(SCc2cccc(CC(N)C(=O)O)n2)n1 (stereo not drawn) [Compound 121]", "0 (X < 0 Rank 0)"),
]

NC(=O)C(N)Cc1cccc(CSc2ncc[nH]2)c1 (stereo not drawn) [Compound 6] has a reported Comparison with the Binding of Phenylalanine of 0 (X < 0 Rank 0)

Recorded Comparison with the Binding of Phenylalanine (molecule NC(Cc1cccc(-c2cccc(Sc3nnnn3CC(=O)O)c2)c1)C(=O)O (stereo not drawn) [Compound 138] ): 0 (X < 0 Rank 0)

Documented Comparison with the Binding of Phenylalanine of Cn1cnnc1SCc1cccc(CC(N)C(=O)O)n1 (stereo not drawn) [Compound 156] : 1 (0 < X < 10 Rank 1)

Looking up Cn1cnnc1SCc1cccc(CC(N)C(=O)O)c1 (stereo not drawn) [Compound 141] , I see its Comparison with the Binding of Phenylalanine listed as 0 (X < 0 Rank 0)

So for NC(Cc1cccc(CSc2nnnn2CC(=O)O)n1)C(=O)O (stereo not drawn) [Compound 123] , the logged Comparison with the Binding of Phenylalanine turned out to be 2 (10 < X < 20 Rank 2)

// sample NC(Cc1cccc(CSc2nc3ccccc3c(=O)[nH]2)n1)C(=O)O (stereo not drawn) [Compound 125] , its Comparison with the Binding of Phenylalanine was 1 (0 < X < 10 Rank 1)

Comparison with the Binding of Phenylalanine in this record for N[C@@H](Cc1ccccc1)C(=O)NC(Cc1cccc(CSc2nc3ccccc3[nH]2)n1)C(=O)O (stereo partly drawn) [Compound 29] : 1 (0 < X < 10 Rank 1)

Short answer for N#CC1(c2ccccc2)CCN(Cc2ccc(-c3ccc(CC(N)C(=O)O)cc3)cc2)CC1 (stereo not drawn) [Compound 147] : Comparison with the Binding of Phenylalanine was 0 (X < 0 Rank 0)

The value of Comparison with the Binding of Phenylalanine measured for the molecule N[C@@H](Cc1ccccc1)C(=O)NC(Cc1cccc(CSc2nnnn2-c2ccc(O)cc2)c1)C(=O)O (stereo partly drawn) [Compound 50] turned out to be 2 (10 < X < 20 Rank 2)

###

Biological target: L1 transport system (large neutral amino acid carrier, L1-system carrier) (Rattus norvegicus, UniProt Q63016)
Construct: functionality of their endogenous transporters such as the L1-system carrier; endogenous in cells; host or cells: rat primary cerebrovascular (brain microcapillary) endothelial cells, RBEC
Assay: Competitive binding assay to the brain L1 transport system (L-[U-14C]phenylalanine on rat primary cerebrovascular endothelial cells)
Conditions: 10^−4 M
measured endpoint: Comparison with the Binding of Phenylalanine

Known Comparison with the Binding of Phenylalanine results, listed for orientation:
# compound, experimental value
data = [
    ("O=C(O)C(Cc1cccc(CSc2nnc(-c3ccncc3)o2)c1)NS(=O)(=O)c1ccc(F)cc1 (stereo not drawn)", "0 (X < 0 Rank 0)"),
    ("N#CC1(c2ccccc2)CCN(Cc2cccc(CC(N)C(=O)O)c2)CC1 (stereo not drawn)", "1 (0 < X < 10 Rank 1)"),
    ("NC(Cc1cccc(CSc2ccc3ccccc3n2)c1)C(=O)O (stereo not drawn)", "0 (X < 0 Rank 0)"),
    ("NC(=O)C(N)Cc1cccc(CSc2nnc(-c3ccccc3)[nH]2)c1 (stereo not drawn)", "0 (X < 0 Rank 0)"),
    ("NC(Cc1ccc(-c2ccc(CSc3ncccn3)cc2)cc1)C(=O)O (stereo not drawn)", "2 (10 < X < 20 Rank 2)"),
]

NC(=O)C(N)Cc1cccc(CSc2nc3ccccc3o2)n1 (stereo not drawn) yielded Comparison with the Binding of Phenylalanine of 0 (X < 0 Rank 0)

Just so you know, measured Comparison with the Binding of Phenylalanine for NC(Cc1cccc(CSc2nc3ccccc3c(=O)[nH]2)c1)C(=O)O (stereo not drawn) came out at 1 (0 < X < 10 Rank 1)

Comparison with the Binding of Phenylalanine measured on NC(Cc1cccc(CSc2ccnc3cc(C(F)(F)F)ccc23)c1)C(=O)O (stereo not drawn) = 0 (X < 0 Rank 0)

N#CC1(c2ccccc2)CCN(Cc2cccc(CC(N)C(=O)O)n2)CC1 (stereo not drawn) yielded Comparison with the Binding of Phenylalanine of 0 (X < 0 Rank 0)

###

Molecular target: L1 transport system (large neutral amino acid carrier, L1-system carrier) (Rattus norvegicus)
Construct: functionality of their endogenous transporters such as the L1-system carrier; endogenous in cells; host or cells: rat primary cerebrovascular (brain microcapillary) endothelial cells, RBEC
Assay: Competitive binding assay to the brain L1 transport system (L-[U-14C]phenylalanine on rat primary cerebrovascular endothelial cells)
Settings: 10^−6 M
measured endpoint: Comparison with the Binding of Phenylalanine

Please review the following examples before continuing.
# compound, experimental value
measured = [
    ("O=C(Nc1ccc(-c2ccccc2)cc1)NC(Cc1cccc(CSc2nnnn2-c2ccccc2)c1)C(=O)O (centres unmarked) [Compound 54]", "2 (10 < X < 20 Rank 2)"),
    ("NC(=O)C(N)Cc1cccc(CSc2nnnn2-c2ccccc2)c1 (centres unmarked) [Compound 9]", "0 (X < 0 Rank 0)"),
    ("NC(Cc1cccc(CN2CCN(c3ncccn3)CC2)n1)C(=O)O (centres unmarked) [Compound 158]", "1 (0 < X < 10 Rank 1)"),
    ("NC(Cc1cccc(-c2cccc(N3CCN(c4ccccn4)CC3)c2)c1)C(=O)O (centres unmarked) [Compound 113]", "2 (10 < X < 20 Rank 2)"),
    ("O=C(Nc1ccc(-c2ccccc2)cc1)NC(Cc1cccc(CSc2cncc3c(C(F)(F)F)cccc23)n1)C(=O)O (centres unmarked) [Compound 61]", "2 (10 < X < 20 Rank 2)"),
]

Note to self: Comparison with the Binding of Phenylalanine recorded for O=C(NC(Cc1cccc(CSc2nnc(-c3ccccc3)[nH]2)c1)C(=O)O)NC(c1ccccc1)c1ccccc1 (centres unmarked) [Compound 57] was 3 (X > 20 Rank 3)

In plain terms, N[C@@H](Cc1ccccc1)C(=O)NC(Cc1cccc(CSc2cncc3c(C(F)(F)F)cccc23)n1)C(=O)O (some centres unmarked) [Compound 26] has a documented Comparison with the Binding of Phenylalanine of 1 (0 < X < 10 Rank 1)

Record Cn1cnnc1SCc1cccc(CC(N)C(=O)O)c1 (centres unmarked) [Compound 141] , field Comparison with the Binding of Phenylalanine: 1 (0 < X < 10 Rank 1)

###

Recorded measurements of Comparison with the Binding of Phenylalanine, one per entry
Molecular target: L1 transport system (large neutral amino acid carrier, L1-system carrier) (Rattus norvegicus, UniProt Q63016)
Construct: functionality of their endogenous transporters such as the L1-system carrier; endogenous in cells; host or cells: rat primary cerebrovascular (brain microcapillary) endothelial cells, RBEC
Test: Competitive binding assay to the brain L1 transport system (L-[U-14C]phenylalanine on rat primary cerebrovascular endothelial cells)
Conditions: 10^−4 M

# molecule, experimental value
records = [
    ("Cc1ccnc(Sc2cccc(-c3cccc(CC(N)C(=O)O)c3)c2)n1 (stereo not drawn) [Compound 136]", "0 (X < 0 Rank 0)"),
    ("NC(Cc1cccc(CSc2nc3ccccc3o2)n1)C(=O)O (stereo not drawn) [Compound 30]", "1 (0 < X < 10 Rank 1)"),
    ("NC(Cc1cccc(CN2CCN(c3cccc(Cl)c3)CC2)n1)C(=O)O (stereo not drawn) [Compound 86]", "1 (0 < X < 10 Rank 1)"),
    ("CN(C)CCn1nnnc1SCc1cccc(CC(N)C(=O)O)n1 (stereo not drawn) [Compound 88]", "1 (0 < X < 10 Rank 1)"),
    ("NC(Cc1cccc(CSc2ncnc3[nH]ncc23)n1)C(=O)O (stereo not drawn) [Compound 33]", "3 (X > 20 Rank 3)"),
    ("NC(Cc1cccc(CSc2nnnn2-c2ccccc2)c1)C(=O)O (stereo not drawn) [Compound 8]", "3 (X > 20 Rank 3)"),
    ("N#CC1(c2ccccc2)CCN(Cc2ccc(-c3ccc(CC(N)C(=O)O)cc3)cc2)CC1 (stereo not drawn) [Compound 147]", "0 (X < 0 Rank 0)"),
    ("CC(=O)c1ccc(N2CCN(Cc3cccc(CC(N)C(=O)O)n3)CC2)cc1 (stereo not drawn) [Compound 127]", "1 (0 < X < 10 Rank 1)"),
]

Please fill in: Comparison with the Binding of Phenylalanine reported for NC(Cc1cccc(-c2cccc(Sc3nnnn3CC(=O)O)c2)c1)C(=O)O (stereo not drawn) [Compound 138] = 0 (X < 0 Rank 0)
